- assay-info: Fraction unbound in rat at 1 mg/kg, iv or 2 mg/kg, po
- Assay type: ADME, organism-based
- measurement-conditions: in vivo
readout-name: fraction unbound
Answers are plain numbers.

Example compounds with recorded fraction unbound:
[
  {
    "smiles-code": "C[C@@H](C(=O)Nc1ccc(C[C@@H]2CC[C@H]([C@H](O)c3ccccc3)N2)cc1)n1ncccc1=O",
    "readout-name": "fraction unbound",
    "value-observed": 0.2
  },
  {
    "smiles-code": "O=C(Nc1ccc(C[C@@H]2CC[C@H]([C@H](O)c3ccccc3)N2)cc1)[C@@H]1CCc2nccc(=O)n21",
    "readout-name": "fraction unbound",
    "value-observed": 0.21
  }
]

Could you now look at the following compound, please?
Any idea what its fraction unbound is? The compound is "O=C(Cn1ncccc1=O)Nc1ccc(C[C@@H]2CC[C@H]([C@H](O)c3ccccc3)N2)cc1" 0.27

Data credit: ChEMBL document CHEMBL3763146
